Molecular target: Abf1 (UniProt P14164)
Sequence: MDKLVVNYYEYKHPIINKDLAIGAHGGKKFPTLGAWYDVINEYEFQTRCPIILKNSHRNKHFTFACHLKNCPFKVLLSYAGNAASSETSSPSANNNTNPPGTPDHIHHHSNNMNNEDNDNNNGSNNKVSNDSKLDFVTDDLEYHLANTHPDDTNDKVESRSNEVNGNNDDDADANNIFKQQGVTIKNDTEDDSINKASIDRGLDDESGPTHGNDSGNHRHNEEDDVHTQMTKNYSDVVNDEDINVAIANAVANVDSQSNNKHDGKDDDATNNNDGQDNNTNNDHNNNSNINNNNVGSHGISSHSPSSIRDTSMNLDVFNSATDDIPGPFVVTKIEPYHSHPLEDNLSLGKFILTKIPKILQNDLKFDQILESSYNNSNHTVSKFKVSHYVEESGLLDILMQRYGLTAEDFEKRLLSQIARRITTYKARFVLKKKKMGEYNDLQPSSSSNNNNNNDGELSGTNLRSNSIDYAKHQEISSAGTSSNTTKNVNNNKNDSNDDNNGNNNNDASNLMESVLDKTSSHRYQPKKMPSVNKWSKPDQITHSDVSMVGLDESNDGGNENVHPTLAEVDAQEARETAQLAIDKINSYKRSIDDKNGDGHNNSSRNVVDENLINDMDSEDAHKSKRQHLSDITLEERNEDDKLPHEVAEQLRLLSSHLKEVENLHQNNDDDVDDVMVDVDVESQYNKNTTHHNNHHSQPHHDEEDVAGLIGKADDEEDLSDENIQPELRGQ
Test: PBM E-score (8-mer binding enrichment) (E-score (-0.5 to 0.5)); higher = stronger / more preferred TF binding
Details: protein concentration: 200 nM; construct: GST-full length
In all, about 33,000 sequences were measured (“E-score (-0.5 to 0.5)”: median about -0.015, highest 2% from about 0.3 on). The full list was thinned out, with the highest values kept by preference.
Measured PBM E-score values are reported for all entries that follow.

# seq-text, experimental-target, PBM E-score
rows = [
    ("ATCGCCCC", "Abf1 (UniProt P14164)", -0.113),
    ("ATGTACGG", "Abf1 (UniProt P14164)", 0.241),
    ("CACGCTCC", "Abf1 (UniProt P14164)", -0.00778),
    ("GAGTACGA", "Abf1 (UniProt P14164)", 0.0499),
    ("ACAGTTGA", "Abf1 (UniProt P14164)", -0.00384),
    ("CCCAAAGG", "Abf1 (UniProt P14164)", -0.158),
    ("TAAGTCTA", "Abf1 (UniProt P14164)", -0.136),
    ("ATTGCGTG", "Abf1 (UniProt P14164)", -0.126),
    ("GTGTGACA", "Abf1 (UniProt P14164)", 0.116),
    ("AAGCGGGC", "Abf1 (UniProt P14164)", -0.381),
    ("ACCGTGCT", "Abf1 (UniProt P14164)", 0.139),
    ("CCCGGCCA", "Abf1 (UniProt P14164)", -0.267),
    ("GCGTGTGA", "Abf1 (UniProt P14164)", -0.00541),
    ("AGGTCACG", "Abf1 (UniProt P14164)", 0.235),
    ("GCCGTGCA", "Abf1 (UniProt P14164)", 0.223),
    ("CCCGTGCA", "Abf1 (UniProt P14164)", 0.0856),
    ("GACGGCTA", "Abf1 (UniProt P14164)", 0.0813),
    ("CCGTGTGA", "Abf1 (UniProt P14164)", 0.301),
    ("GGTATGAC", "Abf1 (UniProt P14164)", -0.0891),
    ("TCCGGCGA", "Abf1 (UniProt P14164)", 0.069),
    ("CTGTACGC", "Abf1 (UniProt P14164)", -0.106),
    ("CTGTACAA", "Abf1 (UniProt P14164)", 0.109),
    ("TCCGTGAA", "Abf1 (UniProt P14164)", 0.238),
    ("GACGGCAA", "Abf1 (UniProt P14164)", 0.246),
    ("CTTGGGGC", "Abf1 (UniProt P14164)", -0.247),
    ("ACCGTGCG", "Abf1 (UniProt P14164)", 0.315),
    ("CGAATGAC", "Abf1 (UniProt P14164)", 0.312),
    ("GATCGCCC", "Abf1 (UniProt P14164)", 0.0433),
    ("CGAATGAA", "Abf1 (UniProt P14164)", -0.164),
    ("AATGATGC", "Abf1 (UniProt P14164)", 0.196),
    ("TCCGTGCA", "Abf1 (UniProt P14164)", 0.312),
    ("AACGGCGC", "Abf1 (UniProt P14164)", 0.123),
    ("AAGGGTTA", "Abf1 (UniProt P14164)", 0.0193),
    ("ACCGTGCA", "Abf1 (UniProt P14164)", 0.315),
    ("AAGTCACA", "Abf1 (UniProt P14164)", 0.125),
    ("ATAGGCTC", "Abf1 (UniProt P14164)", -0.0801),
    ("ATGTACGC", "Abf1 (UniProt P14164)", 0.027),
    ("CCACCTAG", "Abf1 (UniProt P14164)", -0.225),
    ("AAGTCACT", "Abf1 (UniProt P14164)", 0.304),
    ("GACGGCGA", "Abf1 (UniProt P14164)", 0.0475),
    ("TACGGCAA", "Abf1 (UniProt P14164)", 0.301),
    ("AGTGATGC", "Abf1 (UniProt P14164)", 0.319),
    ("CAGTAGGA", "Abf1 (UniProt P14164)", -0.109),
    ("CTGTACGA", "Abf1 (UniProt P14164)", 0.383),
    ("CCCGTGCG", "Abf1 (UniProt P14164)", 0.054),
    ("ATGTACGA", "Abf1 (UniProt P14164)", 0.444),
]
